assay-text: blockers of CRF-binding protein–CRF-R2 complex – cell-based, uHTS hits, 384-well, dose response (AID 651639)
Assay type: functional, Homo sapiens
stated-conditions: read-out: IC50_Mean
The source made the active and inactive calls. Rule as the data show it: actives have a measured value and inactives only a lower limit.
Labels: active, inactive

compound=CN(Cc1ccc([N+](=O)[O-])cc1)c1ccccc1 assigned_category=active
compound=Cc1cc(C(F)(F)F)n(-c2nc(C(=O)N/N=C/c3ccc(F)cc3)cs2)n1 assigned_category=inactive
compound="CC(C)=C1C2CCC1C(C(=O)Nc1sc(C)c(-c3ccc(C(C)C)cc3)c1C(N)=O)C2C(=O)O (stereo not given)" assigned_category=active
compound=CN(C)c1cccc(C(=O)OCC(=O)Nc2ccccc2Sc2ccccc2)c1 assigned_category=inactive
compound=O=C1S/C(=C\c2ccc(O)c([N+](=O)[O-])c2)C(=O)N1c1ccccc1Cl assigned_category=inactive
